B1: IRX6 (parent)
chain: YPCLEKPRIWSLAHTATASAVEGA

variants of: B1; experiment: protein stability index of a GFP-peptide fusion (GPS, HEK-293T) (PSI 1-6); higher = more stable; details: c terminus: a fixed tail appended;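 also: lentivirally expressed fusions sorted by FACS into six bins by GFP to DsRed ratio, PSI derived from sequencing read proportions per bin multiplied by bin number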
So basically, the class depends on measured protein stability index, and the ranges are band A: < 2; band B: ≥ 2 and < 3; band C: ≥ 3

* V21L | band A

### Prompt Textbook exercise: identify the category of the variant given here, `W10S` , according to its measured value.
### Response band C

### Prompt Textbook exercise: identify the category of the variant given here, `A16D` , according to its measured value.
### Response band A

### Prompt Textbook exercise: identify the category of the variant given here, `I9Q` , according to its measured value.
### Response band B

### Prompt Textbook exercise: identify the category of the variant given here, `Y1S` , according to its measured value.
### Response band C

### Prompt Textbook exercise: identify the category of the variant given here, `H14I` , according to its measured value.
### Response band A

### Prompt Textbook exercise: identify the category of the variant given here, `V21H` , according to its measured value.
### Response band B

### Prompt Textbook exercise: identify the category of the variant given here, `E5Y` , according to its measured value.
### Response band B

### Prompt Textbook exercise: identify the category of the variant given here, `A24W` , according to its measured value.
### Response band B

### Prompt Textbook exercise: identify the category of the variant given here, `A16P` , according to its measured value.
### Response band A

### Prompt Textbook exercise: identify the category of the variant given here, `A16L` , according to its measured value.
### Response band A

### Prompt Textbook exercise: identify the category of the variant given here, `P7D` , according to its measured value.
### Response band C

### Prompt Textbook exercise: identify the category of the variant given here, `G23I` , according to its measured value.
### Response band C

### Prompt Textbook exercise: identify the category of the variant given here, `Y1W` , according to its measured value.
### Response band B

### Prompt Textbook exercise: identify the category of the variant given here, `E5L` , according to its measured value.
### Response band C

### Prompt Textbook exercise: identify the category of the variant given here, `P2F` , according to its measured value.
### Response band B

### Prompt Textbook exercise: identify the category of the variant given here, `A13P` , according to its measured value.
### Response band B

### Prompt Textbook exercise: identify the category of the variant given here, `P2A` , according to its measured value.
### Response band B

### Prompt Textbook exercise: identify the category of the variant given here, `S11I` , according to its measured value.
### Response band B

### Prompt Textbook exercise: identify the category of the variant given here, `P7G` , according to its measured value.
### Response band B

### Prompt Textbook exercise: identify the category of the variant given here, `L4K` , according to its measured value.
### Response band B

### Prompt Textbook exercise: identify the category of the variant given here, `K6H` , according to its measured value.
### Response band A
